# Tested on: cancer cell lines from the cancer cell line encyclopedia (CCLE)
# assaySummary: Cell line profiling (CLiP) proliferation experiment
# Type: cell-based
# experimentalSetup: TE-1 (oesophagus, squamous_cell_carcinoma); read-out: Inflection Point
# Experimental: Compound profiling experiment and data analysis was performed as previously described. Data was imported and plotted using the Tibco Spotfire DXP application. Lines were categorized as sensitive, intermediate and refractory as follows: Amax<-40 & Inflection Point <2 ~ Sensitive, Amax>-20 & Inflection Point >10 ~ Refractory, all else were called Intermediate. Cancer Cell line HG-U133 Plus 2 data was processed and normalized as described. […]
pEC50: −log10 of the molar value.
parameter: pEC50

>>> df
                                        mol                              testedtarget  parameter  measuredvalue
0  CC(C)[C@@]12C[C@@H](O)[C@@](C)(O1)[C@@H]1CC[C@@H](C)[C@H]1[C@@H]2OC(=O)/C=C/c1ccccc1  cancer cell lines from the cancer cell line encyclopedia (CCLE)      pEC50           4.78

====

# System: cancer cell lines from the cancer cell line encyclopedia (CCLE)
# assaySummary: Cell line profiling (CLiP) proliferation experiment
# Type: cell-based
# experimentalSetup: Homo sapiens, Granta-519, cell line GRANTA-519; read-out: Crossing Point
parameter: IC50

>>> print(df.to_string())
                                   compound                              testedtarget  parameter  measuredvalue
0  CC(C)[C@@]12C[C@@H](O)[C@@](C)(O1)[C@@H]1CC[C@@H](C)[C@H]1[C@@H]2OC(=O)/C=C/c1ccccc1 [Englerin B]  cancer cell lines from the cancer cell line encyclopedia (CCLE)       IC50        > 30 µM

====

# Test system: cancer cell lines from the cancer cell line encyclopedia (CCLE)
# assaySummary: Cell line profiling (CLiP) proliferation experiment
# Assay type: cell-based
# experimentalSetup: Homo sapiens, NCI-H460, cell line NCI-H460; read-out: Crossing Point
pIC50: −log10 of the molar value.
parameter: pIC50

>>> df
                                   molecule                              testedtarget  parameter  measuredvalue
0  CC(C)[C@@]12C[C@@H](O)[C@@](C)(O1)[C@@H]1CC[C@@H](C)[C@H]1[C@@H]2OC(=O)/C=C/c1ccccc1 [Englerin B]  cancer cell lines from the cancer cell line encyclopedia (CCLE)      pIC50         < 4.52

====

# Tested on: cancer cell lines from the cancer cell line encyclopedia (CCLE)
# assaySummary: Cell line profiling (CLiP) proliferation experiment
# Type: cell-based
# experimentalSetup: cell line MOG-G-UVW (central_nervous_system); read-out: Inflection Point
# Procedure: Compound profiling experiment and data analysis was performed as previously described. Data was imported and plotted using the Tibco Spotfire DXP application. Lines were categorized as sensitive, intermediate and refractory as follows: Amax<-40 & Inflection Point <2 ~ Sensitive, Amax>-20 & Inflection Point >10 ~ Refractory, all else were called Intermediate. Cancer Cell line HG-U133 Plus 2 data was processed and normalized as described. […]
parameter: EC50 (µM)

>>> print(df.to_string())
                                   molecule  measuredvalue
0  CC(C)[C@@]12C[C@@H](O)[C@@](C)(O1)[C@@H]1CC[C@@H](C)[C@H]1[C@@H]2OC(=O)/C=C/c1ccccc1 [Englerin B]           10.2

====

# Test system: cancer cell lines from the cancer cell line encyclopedia (CCLE)
# assaySummary: Cell line profiling (CLiP) proliferation experiment
# Type: cell-based
# experimentalSetup: Homo sapiens, Rh41, cell line RH-41; read-out: Inflection Point
parameter: EC50 (µM)

In [3]: df
Out[3]:
                                   compound  endpointunit  measuredvalue
0  CC(C)[C@@]12C[C@@H](O)[C@@](C)(O1)[C@@H]1CC[C@@H](C)[C@H]1[C@@H]2OC(=O)/C=C/c1ccccc1 [Englerin B]            µM           11.6

====

# System: cancer cell lines from the cancer cell line encyclopedia (CCLE)
# assaySummary: Cell line profiling (CLiP) proliferation experiment
# Assay type: cell-based
# experimentalSetup: Homo sapiens, NCI-H1581, cell line NCI-H1581 (lung); read-out: Crossing Point
# Procedure: Compound profiling experiment and data analysis was performed as previously described. Data was imported and plotted using the Tibco Spotfire DXP application. Lines were categorized as sensitive, intermediate and refractory as follows: Amax<-40 & Inflection Point <2 ~ Sensitive, Amax>-20 & Inflection Point >10 ~ Refractory, all else were called Intermediate. Cancer Cell line HG-U133 Plus 2 data was processed and normalized as described. […]
pIC50: −log10 of the molar value.
parameter: pIC50

>>> df
                                        mol  parameter  measuredvalue
0  CC(C)[C@@]12C[C@@H](O)[C@@](C)(O1)[C@@H]1CC[C@@H](C)[C@H]1[C@@H]2OC(=O)/C=C/c1ccccc1      pIC50           4.83

====

# System: cancer cell lines from the cancer cell line encyclopedia (CCLE)
# assaySummary: Cell line profiling (CLiP) proliferation experiment
# Type: cell-based
# experimentalSetup: cell line SNU-1079, biliary_tract; read-out: Inflection Point
pEC50: −log10 of the molar value.
parameter: pEC50

>>> df
                                        mol                              testedtarget  parameter  measuredvalue
0  CC(C)[C@@]12C[C@@H](O)[C@@](C)(O1)[C@@H]1CC[C@@H](C)[C@H]1[C@@H]2OC(=O)/C=C/c1ccccc1  cancer cell lines from the cancer cell line encyclopedia (CCLE)      pEC50           4.59

====

# System: cancer cell lines from the cancer cell line encyclopedia (CCLE)
# assaySummary: Cell line profiling (CLiP) proliferation experiment
# Type: cell-based
# experimentalSetup: Homo sapiens, G-361, cell line G-361; read-out: Crossing Point
pIC50: −log10 of the molar value.
parameter: pIC50

>>> print(df.to_string())
                                   compound  measuredvalue
0  CC(C)[C@@]12C[C@@H](O)[C@@](C)(O1)[C@@H]1CC[C@@H](C)[C@H]1[C@@H]2OC(=O)/C=C/c1ccccc1 [Englerin B]         < 4.52

====

# Tested on: cancer cell lines from the cancer cell line encyclopedia (CCLE)
# assaySummary: Cell line profiling (CLiP) proliferation experiment
# Format: cell-based
# experimentalSetup: Homo sapiens, MKN-74, cell line MKN74 (stomach); read-out: Inflection Point
pEC50: −log10 of the molar value.
parameter: pEC50

                                        mol  measuredvalue
0  CC(C)[C@@]12C[C@@H](O)[C@@](C)(O1)[C@@H]1CC[C@@H](C)[C@H]1[C@@H]2OC(=O)/C=C/c1ccccc1           4.56

====

# System: cancer cell lines from the cancer cell line encyclopedia (CCLE)
# assaySummary: Cell line profiling (CLiP) proliferation experiment
# Format: cell-based
# experimentalSetup: Hs766T, cell line Hs 766T; read-out: Crossing Point
parameter: IC50

>>> df
                                   compound  parameter  measuredvalue
0  CC(C)[C@@]12C[C@@H](O)[C@@](C)(O1)[C@@H]1CC[C@@H](C)[C@H]1[C@@H]2OC(=O)/C=C/c1ccccc1 [Englerin B]       IC50        > 30 µM

====

# Test system: cancer cell lines from the cancer cell line encyclopedia (CCLE)
# assaySummary: Cell line profiling (CLiP) proliferation experiment
# Format: cell-based
# experimentalSetup: Homo sapiens, COLO-800, COLO-800, skin, NS; read-out: Crossing Point
# Protocol: Compound profiling experiment and data analysis was performed as previously described. Data was imported and plotted using the Tibco Spotfire DXP application. Lines were categorized as sensitive, intermediate and refractory as follows: Amax<-40 & Inflection Point <2 ~ Sensitive, Amax>-20 & Inflection Point >10 ~ Refractory, all else were called Intermediate. Cancer Cell line HG-U133 Plus 2 data was processed and normalized as described. […]
pIC50: −log10 of the molar value.
parameter: pIC50

>>> df
                                        mol  measuredvalue
0  CC(C)[C@@]12C[C@@H](O)[C@@](C)(O1)[C@@H]1CC[C@@H](C)[C@H]1[C@@H]2OC(=O)/C=C/c1ccccc1         < 4.52

====

# System: cancer cell lines from the cancer cell line encyclopedia (CCLE)
# assaySummary: Cell line profiling (CLiP) proliferation experiment
# Type: cell-based
# experimentalSetup: Homo sapiens, MOLT-16, cell line MOLT-16 (haematopoietic_and_lymphoid_tissue); read-out: Inflection Point
parameter: EC50 (µM)

In [3]: df
Out[3]:
                                   compound  parameter  endpointunit  measuredvalue
0  CC(C)[C@@]12C[C@@H](O)[C@@](C)(O1)[C@@H]1CC[C@@H](C)[C@H]1[C@@H]2OC(=O)/C=C/c1ccccc1 [Englerin B]       EC50            µM           23.3
